Origin of the recorded values: patent US20210388087A1

# experimental_system: T1, Human CD137 ECD (human)
# T1 construct: also called human CD137 extracellular domain; recombinant human CD137
# T1 sequence (chain, as listed by the source limits assumed): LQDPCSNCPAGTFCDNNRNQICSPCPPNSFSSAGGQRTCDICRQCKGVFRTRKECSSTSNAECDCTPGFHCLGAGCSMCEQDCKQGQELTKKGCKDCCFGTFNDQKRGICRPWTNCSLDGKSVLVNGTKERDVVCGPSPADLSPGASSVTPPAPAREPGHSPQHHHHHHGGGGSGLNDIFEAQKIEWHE
# protocol_description: SPR Biacore T200, 37 C, Ab captured on anti-human Fc, antigen as analyte;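 note: recombinant human CD137 flowed over antibodies held by amine-coupled anti-human Fc on a CM4 chip, run in ACES pH 7.4 buffer with 150 mM NaCl and 0.05% Tween 20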
Each entry below carries its reported koff.
The reply should be a number in s⁻¹, with the unit left off.

Worked cases, answers included:
H1550L0918 (antibody, V domains shown, Dual-Ig, IgG; also called H1550L918; dBBDu183H1550/dBBDu072L0918) VH: QVQLVESGGGLVQPGRSLRLSCAASGFKFSNVWMHWVRQAPGKGLEWVAQIKDKYNAYAAYYAPSVKGRFTISRDDSKNSIYLQMNSLKTEDTAVYYCHYIHYASASTLLPAFGVDAWGQGTTVTVSS VL: DIVMTQSPLSLPVTPGEPASISCQPSQEVVHMNNVVYLHWYQQKPGQAPRLLIYKVSNRFPGVPDRFSGSGSGTDFTLKISRVEAEDVGVYYCAQGTSHPFTFGQGTKLEIK | 0.00579
H1649L0581 (antibody, V domains shown, Dual-Ig, IgG; also called dBBDu183H1649/dBBDu072L0581) VH: QVQLVESGGGLVQPGRSLRLSCAASGFVFSNVWFHWVRQAPGKGLEWVAQIKDKYNAYADYYAPSVKERFTISRDDSKNSIYLQMNSLKTEDTAVYYCHYVHYASASTLLPAEGVDAWGQGTTVTVSS VL: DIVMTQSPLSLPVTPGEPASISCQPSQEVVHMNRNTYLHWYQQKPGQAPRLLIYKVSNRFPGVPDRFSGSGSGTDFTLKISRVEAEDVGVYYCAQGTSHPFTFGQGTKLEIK | 0.000553
H1643L0581 (antibody, V domains shown, Dual-Ig, IgG; also called H1643L581; dBBDu183H1643/dBBDu072L0581) VH: QVQLVESGGGLVQPGRSLRLSCAASGFKFSNVWFHWVRQAPGKGLEWVAQIKDYYNAYAAYYAPSVKGRFTISRDDSKNSIYLQMNSLKTEDTAVYYCHYVHYASASTLLPAEGVDAWGQGTTVTVSS VL: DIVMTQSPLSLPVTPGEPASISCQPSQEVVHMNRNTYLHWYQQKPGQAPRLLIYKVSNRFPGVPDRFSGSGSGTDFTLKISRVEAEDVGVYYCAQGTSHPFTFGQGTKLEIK | 0.000606

As a next step, examine the binder that follows.
Quick check: koff of H2594L0581 (antibody, V domains shown, Dual-Ig, IgG; also called H2594L581; dBBDu183H2594/dBBDu072L0581) VH: QVQLVESGGGLVQPGRSLRLSCAASGFKFSNVWFHWVRQAPGKGLEWVAQIKDYYNAYAGYYHPSVKGRFTISRDDSKNSIYLQMNSLKTEDTAVYYCHYVHYAAASQLLPAEGVDAWGQGTTVTVSS VL: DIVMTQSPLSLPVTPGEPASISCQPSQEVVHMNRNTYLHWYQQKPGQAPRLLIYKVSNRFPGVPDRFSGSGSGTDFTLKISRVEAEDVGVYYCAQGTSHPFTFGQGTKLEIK ?
0.00163
